Every entry's value here was drawn from patent US20100272750A1.

- Subject of test: HLA A3301 (human)
- Assay details: 125I-probe competition, purified HLA
Recorded metric: IC50 (nM)

STWHWTGCNK (modifications not checked) [HPV45.E2.322] : 428
AVMCRHYKR (modifications not checked) [HPV45.E1.399] : 24
STAAALYWYK (modifications not checked) [HPV16.E1.314] : 128
ISFAGIVTK (modifications not checked) [HPV31.E2.205] : 4370
VVLLLVRYK (modifications not checked) [HPV16.E1.274] : 6.1
ATMCRHYKR (modifications not checked) [HPV16.E1.406] : 17
